method.notes: Cytotoxicity evaluation using viability assay (crystal violet colorimetric method)
Type: cell-based, human
assay.context: human, HepG2 cells; HepG2, sample conc. 12.5 μg, 48 hours

compound: O=c1[nH]c(Nc2ccc([N+](=O)[O-])cc2)nc2sc3c(c12)CCCCC3
viability at 48 h, 12.5 μg (%): 14.4
--
compound: COc1cccc2c1C(=O)c1c(O)c3c(c(O)c1C2=O)C[C@@](O)(C(=O)CO)C[C@@H]3O[C@H]1C[C@H](N)[C@H](O)[C@H](C)O1 [Doxorubicin, reference compound]
viability at 48 h, 12.5 μg (%): 16.9

---

Entries and their viability at 48 h, 25 μg values follow.
method.notes: Cytotoxicity evaluation using viability assay (crystal violet colorimetric method)
Format: cell-based, human
assay.context: human, HepG2 cells; HepG2, sample conc. 25 μg, 48 hours
property.label: viability at 48 h, 25 μg (%)

compound: COc1cccc2c1C(=O)c1c(O)c3c(c(O)c1C2=O)C[C@@](O)(C(=O)CO)C[C@@H]3O[C@H]1C[C@H](N)[C@H](O)[C@H](C)O1 [Doxorubicin, reference compound]
property.label: viability at 48 h, 25 μg
unit.text: %
meas.value: 14.3
--
compound: O=c1[nH]c(Nc2ccc([N+](=O)[O-])cc2)nc2sc3c(c12)CCCCC3
property.label: viability at 48 h, 25 μg
unit.text: %
meas.value: 10.2

Data credit: patent US9487540B2
